- assayComment: activity coefficient (dimensionless); of the first substance listed, at infinite dilution; xn = mol fraction of the nth substance listed
- conditionDescription: 338.15 K; Liquid; Chromatography; x1 = 0
reportedProperty: activity coefficient

Provide activity coefficient value for the following compound: CC(C)CC(C)(C)C [2,2,4-trimethylpentane] + CCCCn1cc[n+](C)c1.N#CN=C=[N-]
101

Provide activity coefficient value for the following compound: CCCC(=O)OC [methyl butanoate] + CCCCn1cc[n+](C)c1.N#CN=C=[N-]
3.75

Provide activity coefficient value for the following compound: C=CCCCCC [1-heptene] + CCCCn1cc[n+](C)c1.N#CN=C=[N-]
38.1

Provide activity coefficient value for the following compound: CCC(C)CC [3-methylpentane] + CCCCn1cc[n+](C)c1.N#CN=C=[N-]
50

Provide activity coefficient value for the following compound: C=CCCCC [hex-1-ene] + CCCCn1cc[n+](C)c1.N#CN=C=[N-]
25.5

Provide activity coefficient value for the following compound: CCCOCCC [dipropyl ether] + CCCCn1cc[n+](C)c1.N#CN=C=[N-]
20.5

Provide activity coefficient value for the following compound: CO [methanol] + CCCCn1cc[n+](C)c1.N#CN=C=[N-]
0.42

a. C#CCCCCCC [1-octyne] + CCCCn1cc[n+](C)c1.N#CN=C=[N-]
b. C1CCCCCCC1 [cyclooctane] + CCCCn1cc[n+](C)c1.N#CN=C=[N-]
Recorded activity coefficient values differ for a and b ; which one is higher? Returns: label corresponding to the selected item.
b
(b: 38.6, a: 13.4)

###

- assayComment: activity coefficient (dimensionless); of the first substance listed, at infinite dilution; xn = mol fraction of the nth substance listed
- conditionDescription: 338.15 K; Liquid; Chromatography; x1 = 0
reportedProperty: activity coefficient

Reference set, count: 5
Provide activity coefficient value for the following compound: CCCCCCCCC [nonane] + CCCCn1cc[n+](C)c1.N#CN=C=[N-]
181

Provide activity coefficient value for the following compound: CC(C)O [propan-2-ol] + CCCCn1cc[n+](C)c1.N#CN=C=[N-]
0.94

Provide activity coefficient value for the following compound: C#CCCCCC [1-heptyne] + CCCCn1cc[n+](C)c1.N#CN=C=[N-]
9.02

Provide activity coefficient value for the following compound: CCCCC [pentane] + CCCCn1cc[n+](C)c1.N#CN=C=[N-]
38.6

Provide activity coefficient value for the following compound: CCCc1ccccc1 [propylbenzene] + CCCCn1cc[n+](C)c1.N#CN=C=[N-]
7.78

A. CCC(C)(C)C [2,2-dimethylbutane] + CCCCn1cc[n+](C)c1.N#CN=C=[N-]
B. C#CCCCC [1-hexyne] + CCCCn1cc[n+](C)c1.N#CN=C=[N-]
C. O [water] + CCCCn1cc[n+](C)c1.N#CN=C=[N-]
D. C=Cc1ccccc1 [styrene] + CCCCn1cc[n+](C)c1.N#CN=C=[N-]
E. C1=CCCCC1 [cyclohexene] + CCCCn1cc[n+](C)c1.N#CN=C=[N-]
hey, can you rank those compounds up there by activity coefficient? biggest number first please Would you mind listing the labels in the order asked for?
A, E, B, D, C
(A: 50.1, E: 11.3, B: 6.12, D: 2.41, C: 0.336)

###

- assayComment: activity coefficient (dimensionless); of the first substance listed, at infinite dilution; xn = mol fraction of the nth substance listed
- conditionDescription: 368.15 K; Liquid; Chromatography; x1 = 0
reportedProperty: activity coefficient

Reference set, count: 4
Provide activity coefficient value for the following molecule: CC(C)OC(C)C [diisopropyl ether] + CCCCn1cc[n+](C)c1.N#CN=C=[N-]
22

Provide activity coefficient value for the following molecule: C1CCCCCCC1 [cyclooctane] + CCCCn1cc[n+](C)c1.N#CN=C=[N-]
34.5

Provide activity coefficient value for the following molecule: Cc1ccc(C)cc1 [1,4-dimethylbenzene] + CCCCn1cc[n+](C)c1.N#CN=C=[N-]
5.37

Provide activity coefficient value for the following molecule: CCCC(C)=O [pentan-2-one] + CCCCn1cc[n+](C)c1.N#CN=C=[N-]
2.53

P. COC(C)=O [methyl ethanoate] + CCCCn1cc[n+](C)c1.N#CN=C=[N-]
Q. C=CCCCCC [1-heptene] + CCCCn1cc[n+](C)c1.N#CN=C=[N-]
R. C1CCCCC1 [cyclohexane] + CCCCn1cc[n+](C)c1.N#CN=C=[N-]
S. COC(C)(C)C [2-methoxy-2-methylpropane] + CCCCn1cc[n+](C)c1.N#CN=C=[N-]
T. C=CCCCCCCCC [1-decene] + CCCCn1cc[n+](C)c1.N#CN=C=[N-]
hey, can you rank those molecules up there by activity coefficient? biggest number first please Would you mind listing the labels in the order asked for?
T, Q, R, S, P
